Data origin: paper PMC5540273

Test system: YANK1;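 note: KINOMEscan kinase panel screen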
Construct: gene STK32A
Details: concentration: 1 μM, replicates: in singlicate; n = 1
Kindly return Fulfilled if reported %Inh is no lower than 1%; return Not fulfilled if it is lower.

Enquiry: Would you say `Cl.Fc1ccccc1COc1ccc(Nc2ncnc3ccc(-c4nnc(C(F)(F)F)o4)cc23)cc1Cl` shows %Inh at minimum 1%?
Return: Fulfilled

Enquiry: Is reported %Inh greater than or equal to 1% here: `NC(=O)c1sc(-n2cnc3ccccc32)cc1OCc1ccccc1F`
Return: Not fulfilled

Enquiry: Is %Inh at least 1%? Consider `CCn1c(-c2ccncc2)nc2cnccc21`
Return: Not fulfilled

Enquiry: Please check the record `Cc1cc(N2CCC(NS(=O)(=O)c3ccc(F)cc3)CC2)nc(Nc2cccc(C#N)c2)n1.O=C(O)C(F)(F)F` and state if its %Inh is at or above 1%.
Return: Fulfilled

Enquiry: Kindly determine if %Inh recorded for `COc1ccc(NC(=O)c2ccc(-c3cc(-c4nnc(C)o4)ccc3C)cc2)cc1` is above or exactly 1%.
Return: Fulfilled

Enquiry: Kindly determine if %Inh recorded for `Nc1nc(-c2ccc3c(N)n[nH]c3c2)cc(N2CCCCC2)n1` is above or exactly 1%.
Return: Not fulfilled

Enquiry: Hello, I need to know if `Nc1n[nH]c2nnc(-c3ccccc3)cc12` has measured %Inh not below 1%. Thanks!
Return: Fulfilled

Enquiry: Given `Fc1cccc(COc2ccc(Nc3ncnc4cc[nH]c34)cc2Cl)c1` , state whether its %Inh is at least 1%.
Return: Fulfilled

Enquiry: %Inh >= 1% for `N#Cc1ccc(Oc2ccc(Nc3ncnc4cc[nH]c34)cc2Cl)cc1` ?
Return: Fulfilled

Enquiry: Hi team, for `CSc1ccc(NC2=C(c3ccccc3Cl)C(=O)NC2=O)cc1` , is the recorded %Inh at or above 1%?
Return: Fulfilled

Enquiry: Hi, just wondering whether `FC(F)(F)c1ccc(-c2cc(-c3c[nH]nc3-c3ccccn3)ccn2)cc1` shows %Inh of 1% or higher.
Return: Fulfilled

Enquiry: Check this compound for %Inh at or above 1%: `Fc1cccc(COc2ccc(Nc3ncnc4nn5ccccc5c34)cc2Cl)c1`
Return: Not fulfilled

Enquiry: Is %Inh at least 1%? Consider `Clc1cc(Nc2ncnc3cc[nH]c23)ccc1OCc1ccccn1`
Return: Fulfilled

Enquiry: Does %Inh meet or surpass 1% for `O=c1cc(N2CCOCC2)nc2n(Cc3cccc(Cl)c3)ccn12` ?
Return: Not fulfilled

Enquiry: Hello, I need to know if `Clc1cccc(-c2nc(Nc3ccncc3)c3ccccc3n2)c1` has measured %Inh not below 1%. Thanks!
Return: Not fulfilled

Enquiry: Determine whether this compound has %Inh no lower than 1%: CCCc1ccc(S(=O)(=O)NC2CCN(c3ccnc(Nc4ccc(OC)cc4)n3)C2)cc1 (stereo not shown)
Return: Not fulfilled

Enquiry: Could you tell me if the measured %Inh of `COc1ccc(-c2oc3ncnc(N)c3c2-c2ccc(OC)cc2)cc1` reaches 1% or more?
Return: Fulfilled

Enquiry: Is %Inh at least 1%? Consider `CC(C)(C)c1ccc(-n2cnc3c(N)ncnc32)cc1`
Return: Not fulfilled

Enquiry: Form field: %Inh at least 1%? Entry: `CSc1nn2c(=O)cc(N3CCOCC3)nc2n1Cc1cccc(Cl)c1Cl`
Return: Fulfilled

Enquiry: Would you say `Cl.O=S(=O)(c1cccc(F)c1)c1ccc(Nc2ncnc3cc(Br)sc23)cc1Cl` shows %Inh at minimum 1%?
Return: Not fulfilled

Enquiry: Would you say `C[C@H]1CC[C@@H](C(=O)Nc2ccccc2)CN1c1cc(-c2ccc3c(N)n[nH]c3c2)nc(N)n1` shows %Inh at minimum 1%?
Return: Fulfilled
